This listing pairs molecules with measured max response.
- experiment.description: Cycloheximide Counterscreen for Small Molecule Inhibitors of Shiga Toxin; further: read at 38.3 µM for the half of the compounds with a filed dose; 0% is about no effect
- condition.set: cell reporter, cycloheximide protein synthesis inhibition counterscreen; stronger effect = higher value
Hit rate of the full screen: of about 300,000 compounds, about 37,000 (12%) were called active. The full list was thinned out, with actives kept by preference.
The response must be a number in % with no trailing unit.

Worked cases, answers included:
COc1ccc(CC(=O)Nc2ccc(C(=O)NC(C)(C)C)cc2)cc1; 7.23
CCC1CCCCN1C(=O)Nc1cccc(NC(=O)N2CCCCC2CC)c1 (stereo not given); 4.95
N#Cc1ccsc1NC(=O)CN1CCN(S(=O)(=O)c2cc(Cl)ccc2Cl)CC1; -2.08
NC(=O)c1nsc(C(=O)N(CCCN2CCOCC2)C(C(=O)NC2CCCCC2)c2ccc(Cl)cc2)c1N (stereo not given); 0.533
COc1cnc(SCc2ccc(Cl)c(Cl)c2)nc1Cl; 2.3

According to the records, this molecule CC(C)c1ccccc1OCC(O)CN(CC(O)COc1cccc2ccccc12)C(C)C (stereo not given) displays max response of -5.17

According to the records, this molecule "COc1cccc(NC(=O)c2ccc(S(=O)(=O)N(C)C)cc2)c1" displays max response of 9.95

According to the records, this molecule "O=C(Nc1ccc(Cl)cn1)Nc1cccs1" displays max response of 47.7

According to the records, this molecule "Cn1c(-c2ccc(F)cc2)cnc1SCC(=O)NNC(=O)Cc1ccccc1" displays max response of -0.376

According to the records, this molecule "O=C(Nc1cccc([N+](=O)[O-])c1)Nc1ccc(Cl)cn1" displays max response of -1.76

According to the records, this molecule COCCn1c(SCC(=O)Nc2cc(OC)ccc2OC)nc2c(c1=O)SC(C)C2 (stereo not given) displays max response of -1.66

According to the records, this molecule "CCCCc1nc2cc(C(=O)NCCc3cnn(C)c3)ccc2o1" displays max response of 38.8

* * *

- experiment.description: Cycloheximide Counterscreen for Small Molecule Inhibitors of Shiga Toxin; further: read at 38.3 µM for the half of the compounds with a filed dose; 0% is about no effect
- condition.set: cell reporter, cycloheximide protein synthesis inhibition counterscreen
Hit rate of the full screen: of about 300,000 compounds, about 37,000 (12%) were called active. No stated cut-off is given here; in the data, active means max response mostly above about 13% (no sharp cut-off); inactive means mostly below about 14%. For the sample, actives were picked, then their nearest neighbours and some compounds at random.
Result category, one only: 1 (active), -1 (inactive)

CC1(c2ccc3ccccc3c2)NC(=O)NC1=O (stereo unspecified); -1
Cc1ccc(NC(=S)N(CCCN2CCCC2)Cc2cccn2Cc2ccc(Cl)cc2)cc1; -1
O=C(NCCOc1ccccc1Cl)C(=O)Nc1ccccc1; -1
Cc1cccc(C)c1-n1c(C)cc(/C=C2\C(=O)NN(c3ccccc3)C2=O)c1C; -1
Cc1cc(/C=C2/NC(=O)NC2=O)c(C)n1-c1cccnc1; -1

Please state the recorded outcome for this compound: "COc1ccc(Nc2ncnc3sc(C)cc23)cc1"
1

Please state the recorded outcome for this compound: "CCc1ccc2nc(Nc3ncc(C(C)=O)c(C)n3)nc(C)c2c1"
-1

Please state the recorded outcome for this compound: "COc1ccccc1-c1c(C)nn2c(C)c(C(C)=O)cnc12"
-1

Please state the recorded outcome for this compound: "Cc1ccc(Cn2nnc3c(=O)[nH]c(C4CCN(S(=O)(=O)/C=C/c5ccccc5)CC4)nc32)cc1"
-1

Please state the recorded outcome for this compound: Cc1cccc(N2CCN(C(=O)c3cccc(N4C(=O)C5C6C=CC(C6)C5C4=O)c3)CC2)c1C (stereo unspecified)
-1

Please state the recorded outcome for this compound: "COc1ccc(Nc2cc(Sc3ccc(OC)cc3)ncn2)cc1"
-1
